Hey, just so you know, these numbers are from patent US20140348819A1.

# Tested on: six V600E BRAF melanoma cell lines
# METHOD_NOTES: Screening of recombinant RTK ligands for ability to confer resistance to BRAFi (PLX4720) or MEKi (PD184352) (Table 4)
# Type: cell-based, human
# Design: scale not given here
# SETTINGS: G-361, PD184352 - 1 uM, ligand 100 ng/ml
ATTRIBUTE_MEASURED: ability of recombinant RTK ligand to confer resistance
Give bare numbers.

MOLECULE	MEASURED_RESULT
flt-3 ligand (FL) (protein, UniProt P49771 27-235, looked up) Fms-related tyrosine kinase 3 …: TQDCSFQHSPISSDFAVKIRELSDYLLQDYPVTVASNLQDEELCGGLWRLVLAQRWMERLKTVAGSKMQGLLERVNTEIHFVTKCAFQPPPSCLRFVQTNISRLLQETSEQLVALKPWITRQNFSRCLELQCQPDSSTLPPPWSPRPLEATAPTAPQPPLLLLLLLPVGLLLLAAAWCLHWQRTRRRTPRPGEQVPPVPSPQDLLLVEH	0.89

Would you kindly look at the next entry?
Task: For the molecule GDNF (protein, UniProt P39905 78-211, looked up) Glial cell line-derived …: SPDKQMAVLPRRERNRQAAAANPENSRGKGRRGQRGKNRGCVLTAIHLNVTDLGLGYETKEELIFRYCSGSCDAAETTYDKILKNLSRNRRLVSDKVGQACCRPIAFDDDLSFLDDNLVYHILRKHSAKRCGCI , what ability of recombinant RTK ligand to confer resistance is on record?
Result: 0.95
